What IC50 was measured for each of the following?
Test system: BxPC-3
Assay: In vitro inhibition, CellTiter-Glo (CTG) assay
Format: cell-based
Settings: Homo sapiens, BXPC-3, 72 h, 72 hr exposure

compound	measurement
Nc1ccn([C@@H]2O[C@@H]3COP(=O)(O)O[C@H]3C2(F)F)c(=O)n1 [Compound 107]	< 1 µM
Nc1ccn([C@@H]2O[C@H](COP(=O)(O)NCc3ccccc3)[C@@H](O)C2(F)F)c(=O)n1 [Compound 117]	< 1 µM
CC(C)(C)C(=O)SCCOP1(=O)OC[C@H]2O[C@@H](n3ccc(N)nc3=O)C(F)(F)[C@@H]2O1 (single isomer, unassigned) [104 (diastereomer 1)]	< 1 µM

With those in mind, consider the next compound.
Input: Tell me the measured IC50 of CCOC(=O)[C@H](CC(C)C)NP(=O)(O)OC[C@H]1O[C@@H](n2ccc(N)nc2=O)C(F)(F)[C@@H]1O [Compound 115] , please.
Output: 1 to 10 µM

Origin of measurements: patent US10766917B2
